# test method notes: Cell viability by CellTiter-Glo, direct treatment
# Format: cell-based
# run conditions: human, 22.22 μM; EXP ID 10/15/2012 VL; read-out: Cell viability (% inhibition)
observed property: cytotoxicity at 7 days, 22.22 μM (%)
One number for each entry, in %.

-- ask What cytotoxicity at 7 days, 22.22 μM value was documented for this compound, Nc1nc2c(sc(=O)n2[C@@H]2O[C@H](CO)C[C@H]2O)c(=O)[nH]1 [R06871765] ?
-- reply -1.37

====

# test method notes: Cell viability by CellTiter-Glo, direct treatment
# Assay type: cell-based
# run conditions: human, 7.41 μM; EXP ID 10/15/2012 VL; read-out: Cell viability (% inhibition)
observed property: cytotoxicity at 7 days, 7.41 μM (%)
Give bare numbers, in %.

-- ask What cytotoxicity at 7 days, 7.41 μM value was documented for this compound, Nc1nc2c(sc(=O)n2[C@@H]2O[C@H](CO)C[C@H]2O)c(=O)[nH]1 ?
-- reply -1.5
